Hi there, I'd appreciate the recorded viability at 24 h for every entry that follows.
experiment: Cytotoxicity against LPS-stimulated mouse BV2 cells assessed as cell survival after 24 hrs by MTT assay relative to control; format: cell-based, BV-2; design: concentration or dose not given beside the values; details: read-out: Survival
Give bare numbers, in %.

Worked set:
O=C1C=CC2(C=C1)OCC(Cc1ccccc1CS(=O)(=O)c1ccccc1)C(=O)N2c1ccccc1 (stereo not drawn) = 84.3
O=C1C=CC2(C=C1)OCCC(=O)N2c1ccccc1 = 79.8
O=C1C=CC2(C=C1)OCC(Cc1cc(C(F)(F)F)ccc1Cl)C(=O)N2c1ccccc1 (stereo not drawn) = 64.4

State the recorded viability at 24 h for every item in the following list.
1. O=C1C=CC2(C=C1)OCC(Cc1cccc(Br)c1)C(=O)N2c1ccccc1 (stereo not drawn)
2. O=C1C=CC2(C=C1)OCC(Cc1ccc([N+](=O)[O-])cc1)C(=O)N2c1ccccc1 (stereo not drawn)
3. C=CCCC1COC2(C=CC(=O)C=C2)N(c2ccccc2)C1=O (stereo not drawn)
4. C=CCC1COC2(C=CC(=O)C=C2)N(c2ccccc2)C1=O (stereo not drawn)

Reply |
[74, 82.7, 80.4, 84.6]

Ask | Supply reported viability at 24 h belonging to this compound: O=C1C=CC2(C=C1)OCC(Cc1cc(C(F)(F)F)cc(C(F)(F)F)c1)C(=O)N2c1ccccc1 (stereo not drawn)
Reply | 92.1

====

experiment: Cytotoxicity against mouse BV2 cells assessed as cell survival after 24 hrs by MTT assay relative to control; assay type: cell-based, BV-2; parameters: concentration or dose not given beside the values; settings: read-out: Survival
Give measured viability at 24 h for each item. Keep answers brief.

Example cases with answers are listed next.
O=C1C=CC2(C=C1)OCC(Cc1ccccc1CS(=O)(=O)c1ccccc1)C(=O)N2c1ccccc1 (configuration not stated) = 97.5%
O=C1C=CC2(C=C1)OCC(Cc1ccc(F)cc1)C(=O)N2c1ccccc1 (configuration not stated) = 82.9%
O=C1C=CC2(C=C1)OCC(Cc1ccc(Br)cc1)C(=O)N2c1ccccc1 (configuration not stated) = 82.7%
C=C(C)CC1COC2(C=CC(=O)C=C2)N(c2ccccc2)C1=O (configuration not stated) = 91.4%
C=CCCC1COC2(C=CC(=O)C=C2)N(c2ccccc2)C1=O (configuration not stated) = 89%
C=CCC1COC2(C=CC(=O)C=C2)N(c2ccccc2)C1=O (configuration not stated) = 89.7%

Ask | Give a short answer stating reported viability at 24 h for O=C1C=CC2(C=C1)OCC(Cc1cccc(Br)c1)C(=O)N2c1ccccc1 (configuration not stated) .
Reply | 96%

====

Would you kindly list viability at 24 h for each of these molecules?
experiment: Cytotoxicity against LPS-stimulated mouse BV2 cells assessed as cell survival after 24 hrs by MTT assay relative to control; type: cell-based, BV-2; design: concentration or dose not given beside the values; conditions: read-out: Survival
Give bare numbers, in %.

CNC(=N)NCCC[C@H](N)C(=O)O [TILARGININE] = 60.5

Provide viability at 24 h values for the following items, in order.
1. O=C1C=CC2(C=C1)OCC(Cc1c(F)cccc1C(F)(F)F)C(=O)N2c1ccccc1 (stereo not given)
2. O=C1C=CC2(C=C1)OCC(Cc1ccc(C(F)(F)F)cc1)C(=O)N2c1ccccc1 (stereo not given)
3. O=C1C=CC2(C=C1)OCC(Cc1ccc(F)cc1)C(=O)N2c1ccccc1 (stereo not given)

Reply |
[71.1, 84.1, 85.2]
